Taken from PubChem BioAssay (NCI).

Test system: T-47D breast
Assay: NCI-60 one-dose screen, 48 h (100 = growth as untreated, 0 = no growth, -100 = all killed)
Details: 10 µM unless noted
Compounds without any hit were thinned out: in the full panel of roughly 83,000, 20% have a hit.
The compounds listed here are annotated with their growth.
Dear colleague, please return just the value in %, with no unit written.

Consider the following illustrative entries.
COc1ccc(C2C(c3nn[nH]n3)=C(N)Oc3c2ccc2ccccc32)cc1 (centres undefined): 64.4
CN(Cc1cnc2nc(N)nc(N)c2n1)c1ccc(C(=O)N[C@@H](CCc2nn[nH]n2)c2nn[nH]n2)cc1: 75.9

For the compound CN(C)CC1C(=O)O[C@H]2[C@H]1CC/C(COC(=O)c1cc3ccccc3[nH]1)=C\CC[C@@]1(C)O[C@@H]21 (some centres undefined) , what growth is on record?
-76.6

For the compound COc1ccc(/C=C/c2c(C(=O)/C=C/c3ccc(F)cc3)c(C)nc3ccccc23)cc1 , what growth is on record?
30.6

For the compound COc1ccc(-c2csc(C3=C(O)CN(C(C)C)C3=N)n2)cc1OC , what growth is on record?
91.4

For the compound OC(COc1ccccc1Cl)COc1ccccc1Cl , what growth is on record?
97.1

For the compound COc1cc2c(cc1-c1c(C)noc1C)ncc1nc(C3CCC(F)(F)CC3)n(C3CCC(OC(F)F)CC3)c12 (centres undefined) , what growth is on record?
22.5

====

Tested on: SF-268 CNS
Test: NCI-60 one-dose screen, 48 h
Conditions: 10 µM unless noted
Compounds without any hit were thinned out: in the full panel of roughly 83,000, 20% have a hit. The source made the active and inactive calls. How the source made its calls: active means growth percent below 10; inactive means the rest.
Field 'call' accepts active, inactive

Some solved entries appear below for comparison.
N=C1C(c2nc(-c3ccc(Br)cc3)cs2)=C(O)CN1CC1CCCO1 (stereo not drawn): inactive
CCCCCc1nc2c(c3c1CCCC3)CCCC2: inactive
COc1cc2c(cc1-c1c(C)noc1C)ncc1nc(C3CCC(F)(F)CC3)n(C3CCC(OC(F)F)CC3)c12 (stereo not drawn): inactive
CN(C)CCCn1c(=O)c2ccccc2c2ccccc21: inactive
O=C1CC(N2C(=O)/C(=C/C(Cl)=C\c3ccc([N+](=O)[O-])cc3)SC2=S)C(=O)N1c1ccc(O)cc1 (stereo not drawn): active

Identify the outcome logged in this assay for the compound shown: CNC(=O)c1cc(Oc2cccc3nc(Nc4ccc(F)c(Cl)c4)ccc23)ccn1
inactive

Identify the outcome logged in this assay for the compound shown: N#C/C(=C\c1ccc(Br)cc1)n1nnc2cc(F)c(F)cc21
inactive

====

The compounds listed here are annotated with their growth.
Tested on: SK-OV-3 ovarian
Assay: NCI-60 one-dose screen, 48 h (100 = growth as untreated, 0 = no growth, -100 = all killed)
Conditions: 10 µM unless noted
Compounds without any hit were thinned out: in the full panel of roughly 83,000, 20% have a hit. Calls of active or inactive are those of the source. The calls were made as follows: active = growth percent below 10; inactive = the rest.

Consider the following illustrative entries.
COc1cc(/C=C2\C(=O)ON=C2C)cc(OC)c1OC: 98.9% (inactive)
NC(=N\N=C/c1ccccc1[N+](=O)[O-])/C(N)=N\N=C/c1ccccc1[N+](=O)[O-]: 102% (inactive)
N#CCN1C(=O)C2C3=C(CCCC3)SC2N=C1CN1CCCC1 (stereo not drawn): 109% (inactive)
CC(C)CCC[C@@H](C)[C@H]1CC[C@H]2[C@@H](Nc3ccc(O)cc3)CCC[C@]12C: 75.3% (inactive)
NS(=O)(=O)c1ccc(-n2nc(C(=O)N/N=C\c3ccc(F)cc3)cc2-c2ccc(Cl)cc2)cc1: 93.5% (inactive)

For the compound COC(=O)[C@]12CC[C@@H](C)[C@H](C)[C@@H]1C1=CC[C@@H]3[C@@]4(C)C(C=O)=C[C@@](C)(COC(C)=O)[C@@H]4C(=O)C[C@@]3(C)[C@]1(C)CC2 , what growth is on record?
42.3% (inactive)

For the compound CCOC(=O)C/C(C)=N\NC(=O)c1ccncc1 , what growth is on record?
101% (inactive)

For the compound CN(C)CCC=C1c2ccccc2C(C)(C)c2ccccc21 , what growth is on record?
99.7% (inactive)

For the compound Cc1c2c(c(C)c3c1oc1cc(O)ccc13)C(=O)N(CCN1CCCCC1)C2=O , what growth is on record?
105% (inactive)

For the compound C=C(C)[C@@H]1CC[C@]2(C(=O)NC3CCCCC3)CC[C@]3(C)[C@H](CC[C@@H]4[C@@]5(C)CCC(=O)C(C)(C)[C@@H]5CC[C@]43C)[C@@H]12 , what growth is on record?
97.1% (inactive)

For the compound CCOC(=O)c1c(-c2ccc(Cl)cc2)c(C#N)c(=O)n(-c2ccccc2CC)c1N , what growth is on record?
102% (inactive)

For the compound Cc1cc(Cl)ccc1Nc1nc(C(F)(F)F)ccc1C(=O)N/N=C/c1ccc(N(C)C)cc1 , what growth is on record?
42.3% (inactive)

For the compound COc1cccc(-c2nn(-c3ccccc3)cc2-c2ccnc(NCCNC(=O)Nc3cccc(C(F)(F)F)c3)c2)c1 , what growth is on record?
44.9% (inactive)

====

The molecules listed here are annotated with their growth.
Test system: SW-620 colon
Assay: NCI-60 one-dose screen, 48 h (100 = growth as untreated, 0 = no growth, -100 = all killed)
Settings: 10 µM unless noted
Method: Growth inhibition of the SW-620 human tumor cell line is measured as a screen for anti-cancer activity. Cells are grown in 96 well plates and exposed to the test compound for 48 hours. Compounds are tested at a single concentration, which is 10^-5 M for most compounds. The reported endpoint is percent growth (GI% or GIPRCNT), where numbers from 0 - 100% represent growth inhibition, and numbers from -100% - 0 represent cell death. For example, a value of 40 represents 60% growth inhibition. […]
Compounds without any hit were thinned out: in the full panel of roughly 83,000, 20% have a hit.
Dear colleague, please return just the value in %, with no unit written.

Consider the following illustrative entries.
O=C(Nc1ccccc1Cl)Oc1ccc(-c2ccccc2)cc1: 112
CN(C)CC1C(=O)O[C@H]2[C@H]1CC/C(COC(=O)c1cc3ccccc3[nH]1)=C\CC[C@@]1(C)O[C@@H]21 (stereo partly drawn): -19.3
C=CCn1c(C)nc2cc(Nc3nc(N4CCCC4)nc4ccccc34)ccc21: 75
COc1cc(CCC[P+](c2ccccc2)(c2ccccc2)c2ccccc2)cc2c1OCO2: 37.6
Cc1ccccc1NC(=O)N/C(N)=N/c1nc(-c2cccc([N+](=O)[O-])c2)cs1: 31.1

For the molecule Cc1cccc(Cc2cnc(NC(=O)c3ccc4nnsc4c3)s2)c1 , what growth is on record?
80.5

For the molecule O=c1[nH]ccc2nc(N3CCC(O)CC3)nc(Nc3ccc(N4CCOCC4)cc3)c12 , what growth is on record?
39.6

====

Test system: MDA-MB-231 breast
Assay: NCI-60 one-dose screen, 48 h (100 = growth as untreated, 0 = no growth, -100 = all killed)
Conditions: 10 µM unless noted
Compounds without any hit were thinned out: in the full panel of roughly 83,000, 20% have a hit.
readout_kind: growth (%)
Dear colleague, please return just the value in %, with no unit written.

For the compound COc1cc(/C=C/C(=O)c2c(C)nc3ccccc3c2/C=C/c2ccc(C)cc2)cc(OC)c1OC , what growth is on record?
16.6

For the compound CCC1(C2CCCC2)NC(=O)NC1=O (stereo not given) , what growth is on record?
95.6

For the compound C=C(C)[C@@H]1CC=C2c3sc(-c4ccc(C)cc4)nc3C[C@@H](C)[C@]2(C)C1 , what growth is on record?
107

For the compound Cc1cccc(-c2nc(N(C)c3ccc4ncsc4c3)c3ccccc3n2)n1 , what growth is on record?
63.6

For the compound S=C(c1ccc2c(c1)OCO2)N1CCN(c2ccccc2Cl)CC1 , what growth is on record?
98.7

====

System: KM12 colon
Experiment: NCI-60 one-dose screen, 48 h
Conditions: 10 µM unless noted
Compounds without any hit were thinned out: in the full panel of roughly 83,000, 20% have a hit. Calls of active or inactive are those of the source. Rule for the calls: active = growth percent below 10; inactive = the rest.
Field 'call' accepts true for active, false for inactive

CCN(CC)CCCC(C)Nc1c2ccc(Cl)cc2nc2ccc(O)cc12 (configuration not stated): false
C[C@H](NC(=O)[C@@H]1CSSC[C@@H](NC(=O)c2nc3ccccc3cc2O)C(=O)NCC(=O)N1C)c1ccccc1: false
C[C@H]1[C@H]2[C@H]3CC[C@@H]4[C@@]5(C)C/C(=C/c6ccco6)C(=O)C(C)(C)[C@@H]5CC[C@@]4(C)[C@]3(C)CC[C@]23CO[C@]1(C)[C@@H](C(=O)/C=C\c1ccco1)C3: false
Cc1cccc(Cc2cnc(NC(=O)/C=C/c3ccco3)s2)c1: false
Cn1cc(-c2csc(-c3ccccc3)n2)c2cccnc21: true
CCC(CO)Nc1nc2ccc(Cl)cc2c2ccccc12 (configuration not stated): false
CCOC(=O)c1csc(NC(=O)COc2cccc(/C=C3\Oc4cc(OC)ccc4C3=O)c2)n1: false
Cc1ccc(-c2cc(-c3cccnc3)[nH]c(=O)c2C#N)cc1: false

Identify the outcome logged in this assay for the compound shown: Cc1ccc(Nc2ccc(Nc3ccc(C)cc3)c3c2C(=O)c2cccc(O)c2C3=O)cc1
false

Identify the outcome logged in this assay for the compound shown: CC(CCc1ccc(Cl)c(Cl)c1)NCc1ccc(C(C)(C)C)cc1 (configuration not stated)
false

Identify the outcome logged in this assay for the compound shown: COc1ccc2nc(NNC(=O)c3cnccn3)c3cccn3c2c1
true

Identify the outcome logged in this assay for the compound shown: CCc1ccccc1-n1c(-c2ccc(Cl)cc2)cc(-c2ccc(Cl)cc2)c(C#N)c1=O
false

Identify the outcome logged in this assay for the compound shown: Cc1cc(C(=O)c2ccccc2)c(C)c2c1[nH]c1ccc(Cl)cc12
true
